meta.source: ChEMBL document CHEMBL5046282

molecular target: hERG (Homo sapiens, UniProt Q12809); experiment: Inhibition of hERG expressed in CHO-K1 cells at 30 uM by automated whole cell patch clamp assay; format: toxicity, cell-based; conditions: CHO-K1 cells expressing hERG
Sequence (Q12809 whole entry): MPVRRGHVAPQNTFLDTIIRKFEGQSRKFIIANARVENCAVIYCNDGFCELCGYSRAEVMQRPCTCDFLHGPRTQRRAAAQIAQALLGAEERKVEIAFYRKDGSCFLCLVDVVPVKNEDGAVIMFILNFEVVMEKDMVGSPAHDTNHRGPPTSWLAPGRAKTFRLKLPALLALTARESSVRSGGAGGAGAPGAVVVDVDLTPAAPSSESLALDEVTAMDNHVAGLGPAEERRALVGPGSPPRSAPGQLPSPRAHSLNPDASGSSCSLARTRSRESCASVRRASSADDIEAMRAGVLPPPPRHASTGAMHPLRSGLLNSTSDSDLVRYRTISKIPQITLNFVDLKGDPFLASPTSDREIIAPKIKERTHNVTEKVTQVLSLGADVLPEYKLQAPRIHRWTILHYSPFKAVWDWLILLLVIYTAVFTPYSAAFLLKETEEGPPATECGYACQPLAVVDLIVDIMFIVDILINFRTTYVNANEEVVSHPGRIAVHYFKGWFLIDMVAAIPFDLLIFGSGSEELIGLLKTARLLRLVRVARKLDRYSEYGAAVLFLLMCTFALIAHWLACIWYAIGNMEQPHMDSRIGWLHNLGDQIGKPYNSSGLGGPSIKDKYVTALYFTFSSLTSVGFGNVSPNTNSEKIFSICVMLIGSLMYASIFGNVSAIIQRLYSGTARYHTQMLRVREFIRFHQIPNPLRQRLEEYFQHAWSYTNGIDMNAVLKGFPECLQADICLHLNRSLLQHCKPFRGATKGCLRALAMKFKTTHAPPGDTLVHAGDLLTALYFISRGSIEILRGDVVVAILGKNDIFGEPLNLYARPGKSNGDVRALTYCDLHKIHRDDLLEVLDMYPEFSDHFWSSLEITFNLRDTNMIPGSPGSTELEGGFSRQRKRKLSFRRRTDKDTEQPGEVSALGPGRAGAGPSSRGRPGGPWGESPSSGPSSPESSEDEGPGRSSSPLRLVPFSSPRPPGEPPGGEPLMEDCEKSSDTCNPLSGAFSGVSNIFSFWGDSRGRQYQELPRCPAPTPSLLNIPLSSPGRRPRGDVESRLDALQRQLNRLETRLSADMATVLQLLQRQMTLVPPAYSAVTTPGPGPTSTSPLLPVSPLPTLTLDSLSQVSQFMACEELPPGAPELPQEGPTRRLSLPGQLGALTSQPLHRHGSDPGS
ASSAY_ENDPOINT: inhibition at 30 µM (%)
Value expressed in %; do not type the unit.

INSERT INTO assay_data (cpd_smiles, assay_endpoint, recorded_result) VALUES
  ('CC(C)(O)c1ccc(N2Cc3c(ccnc3-c3ccc(F)cc3OCC(F)(F)F)C2=O)cc1', 'inhibition at 30 µM', 42);

inhibition at 30 µM of "CC(C)(O)c1ccc(NC(=O)c2ccnn(-c3ccccc3OCC(F)(F)F)c2=O)cc1" , assay on hERG (Homo sapiens, UniProt Q12809), is 8

* * *

assay: Efflux ratio of apparent permeability from basolateral to apical side over apical to basolateral side in dog MDCK-MDR1 cells at 1 uM measured after 1 hr by LC-MS/MS analysis; format: ADME, cell-based, Canis lupus familiaris
ASSAY_ENDPOINT: efflux ratio at 1 h, 1 µM
Respond with the number and no other words.

See these solved cases before continuing.
INSERT INTO measurements (cpd_smiles, recorded_result) VALUES
  ('CC(C)(O)c1ccc(NC(=O)c2ccnn(-c3ccc(F)cc3OCC(F)(F)F)c2=O)cc1', 6.6),
  ('CN(C)C(=O)c1ccc(N2Cc3c(ccnc3-c3ccc(F)cc3OCC(F)(F)F)C2=O)cc1', 35),
  ('CS(=O)(=O)c1ccc(N2Cc3c(ccnc3-c3ccc(F)cc3OCC(F)(F)F)C2=O)cc1', 32),
  ('CC(C)(O)c1ccc(NC(=O)c2cccc(-c3ccccc3OCC(F)(F)F)n2)cc1', 2.2),
  ('CC(C)(O)c1ccc(NC(=O)c2ccnn(-c3ccccc3OCC(F)(F)F)c2=O)cc1', 8.8);

In plain terms, "O=C1c2ccnc(-c3ccc(F)cc3OC(F)(F)F)c2CN1c1ccc(F)cc1" has a documented efflux ratio at 1 h, 1 µM of 2.6

The recorded efflux ratio at 1 h, 1 µM for "CC(C)(O)c1ccc(NC(=O)c2cccc(-c3ccccc3OCC(F)(F)F)c2)cc1" is 3

Measured efflux ratio at 1 h, 1 µM, "CC(C)(O)c1ccc(NC(=O)c2cccn(-c3ccccc3OCC(F)(F)F)c2=O)cc1" : 15

The recorded efflux ratio at 1 h, 1 µM for "CC(C)(O)c1ccc(NC(=O)c2cccc(-c3ccccc3OCC(F)(F)F)c2F)cc1" is 1.9

* * *

Catalogue of molecules with associated EC50
molecular target: Ceramide glucosyltransferase (Homo sapiens, UniProt Q16739); experiment: Inhibition of GCS in GBA mutant human fibroblasts assessed as reduction in glucosylceramide level incubated for 4 days by RapdiFire-MS/MS analysis; settings: fibroblast
Sequence (Q16739 whole entry, looked up, change not shown): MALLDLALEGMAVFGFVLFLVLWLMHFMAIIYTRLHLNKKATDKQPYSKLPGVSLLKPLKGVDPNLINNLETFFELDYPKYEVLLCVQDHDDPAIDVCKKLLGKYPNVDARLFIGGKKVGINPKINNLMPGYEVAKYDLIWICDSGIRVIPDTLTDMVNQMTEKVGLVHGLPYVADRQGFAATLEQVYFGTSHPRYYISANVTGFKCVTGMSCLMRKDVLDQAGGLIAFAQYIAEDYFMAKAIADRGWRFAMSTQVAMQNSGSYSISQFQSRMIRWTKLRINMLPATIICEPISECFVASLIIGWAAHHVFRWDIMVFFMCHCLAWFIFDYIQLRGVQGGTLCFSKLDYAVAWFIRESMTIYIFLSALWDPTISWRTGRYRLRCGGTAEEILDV
Write the quantity with the unit trailing the number.

INSERT INTO measurements (cpd_smiles, recorded_result) VALUES
  ('CC(C)(O)c1ccc(NC(=O)c2ccnn(-c3ccccc3OCC(F)(F)F)c2=O)cc1', '4.4 nM');

--- query ---
Quick note, EC50 for "CC(C)(O)c1ccc(N2Cc3c(ccnc3-c3ccc(F)cc3OCC(F)(F)F)C2=O)cc1" landed at 7.6 nM

* * *

target: CYP2D6 (Homo sapiens); assay: Inhibition of CYP2D6 in human liver microsomes using dextromethorphan as substrate at 10 uM in presence of NADPH generating system incubated for 10 mins; assay type: ADME; conditions: probe dextromethorphan
Sequence (P10635 whole entry): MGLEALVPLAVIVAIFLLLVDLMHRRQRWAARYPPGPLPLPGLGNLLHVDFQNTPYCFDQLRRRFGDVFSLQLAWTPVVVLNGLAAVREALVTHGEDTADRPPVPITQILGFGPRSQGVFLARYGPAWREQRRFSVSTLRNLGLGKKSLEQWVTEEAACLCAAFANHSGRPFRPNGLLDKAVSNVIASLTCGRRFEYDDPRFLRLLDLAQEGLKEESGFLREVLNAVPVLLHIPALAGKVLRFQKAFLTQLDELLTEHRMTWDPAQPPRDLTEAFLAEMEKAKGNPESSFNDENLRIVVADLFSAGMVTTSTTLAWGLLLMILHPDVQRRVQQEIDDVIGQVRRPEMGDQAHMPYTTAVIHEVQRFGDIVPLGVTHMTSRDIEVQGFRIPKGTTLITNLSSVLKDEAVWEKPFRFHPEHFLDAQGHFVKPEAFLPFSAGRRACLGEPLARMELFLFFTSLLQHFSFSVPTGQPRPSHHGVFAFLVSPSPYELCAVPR
ASSAY_ENDPOINT: inhibition at 10 min, 10 µM

INSERT INTO measurements (cpd_smiles, assay_endpoint, recorded_result) VALUES
  ('CC(C)(O)c1ccc(N2Cc3c(ccnc3-c3ccc(F)cc3OCC(F)(F)F)C2=O)cc1', 'inhibition at 10 min, 10 µM', '10.9%');

# input for lookup
So the reported inhibition at 10 min, 10 µM for "CC(C)(O)c1ccc(NC(=O)c2ccnn(-c3ccccc3OCC(F)(F)F)c2=O)cc1" , on CYP2D6 (Homo sapiens), turned out to be 15.6%

* * *

test: Plasma clearance in non-fasted ICR mouse at 0.5 mg/kg, iv by LC-MS/MS analysis; format: ADME, organism-based
ASSAY_ENDPOINT: clearance (mL/min/kg)
Number only, in mL/min/kg; omit the unit.

INSERT INTO results (cpd_smiles, recorded_result) VALUES
  ('CC(C)(O)c1ccc(NC(=O)c2ccnn(-c3ccccc3OCC(F)(F)F)c2=O)cc1', 33.7);

# ---- query compound ----
Per the record, "CC(C)(O)c1ccc(N2Cc3c(ccnc3-c3ccc(F)cc3OCC(F)(F)F)C2=O)cc1" has clearance of 5.23

* * *

experiment: Efflux ratio of apparent permeability from basolateral to apical side over apical to basolateral side in dog MDCK-MDR1 cells at 1 uM measured after 1 hr by LC-MS/MS analysis; format: ADME, cell-based, Canis lupus familiaris
efflux ratio at 1 h, 1 µM values, listed per item
Give the figure by itself; no unit, no explanation.

The examples below pair each entry with its known result.
INSERT INTO assay_data (cpd_smiles, recorded_result) VALUES
  ('CC(C)(O)c1ccc(N2Cc3c(ccnc3-c3ccc(F)cc3OCC(F)(F)F)C2=O)cc1', 9.6),
  ('CC(C)(O)COc1ccc(N2Cc3c(ccnc3-c3ccc(F)cc3OCC(F)(F)F)C2=O)cc1', 7.3);

efflux ratio at 1 h, 1 µM in this record for "CC(C)(C#N)c1ccc(N2Cc3c(ccnc3-c3ccc(F)cc3OCC(F)(F)F)C2=O)cc1" : 4

* * *

biological target: CYP2C8 (Homo sapiens, UniProt P10632); test: Inhibition of CYP2C8 in human liver microsomes using paclitaxel as substrate at 10 uM in presence of NADPH generating system incubated for 10 mins; type: ADME; settings: probe paclitaxel
Sequence (P10632 whole entry): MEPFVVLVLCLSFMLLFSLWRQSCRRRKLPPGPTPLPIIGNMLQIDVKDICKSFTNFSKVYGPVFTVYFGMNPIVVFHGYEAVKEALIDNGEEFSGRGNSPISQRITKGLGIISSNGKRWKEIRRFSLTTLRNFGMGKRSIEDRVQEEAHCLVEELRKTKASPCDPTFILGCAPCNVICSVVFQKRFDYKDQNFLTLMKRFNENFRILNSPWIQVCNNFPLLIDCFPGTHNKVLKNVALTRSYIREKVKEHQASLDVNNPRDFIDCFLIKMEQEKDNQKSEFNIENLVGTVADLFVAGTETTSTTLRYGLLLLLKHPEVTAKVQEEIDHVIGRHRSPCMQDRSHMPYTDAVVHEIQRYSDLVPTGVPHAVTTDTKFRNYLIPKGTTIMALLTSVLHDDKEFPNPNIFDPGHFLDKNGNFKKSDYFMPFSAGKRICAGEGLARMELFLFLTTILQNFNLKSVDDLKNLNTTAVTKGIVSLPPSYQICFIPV
// reported inhibition at 10 min, 10 µM for each item listed
Note: a bare number is incomplete; add the unit.

INSERT INTO measurements (cpd_smiles, study_system, recorded_result) VALUES
  ('CC(C)(O)c1ccc(NC(=O)c2ccnn(-c3ccccc3OCC(F)(F)F)c2=O)cc1', 'CYP2C8 (Homo sapiens, UniProt P10632)', '34.2%');

Turning now to a further molecule:
# inhibition at 10 min, 10 µM of "CC(C)(O)c1ccc(N2Cc3c(ccnc3-c3ccc(F)cc3OCC(F)(F)F)C2=O)cc1" = 22.4%

* * *

The reader will find reported MRT values listed item by item below.
test: MRT in non-fasted ICR mouse at 5 mg/kg, po by LC-MS/MS analysis; format: ADME, organism-based; settings: in vivo
Your answer should be a plain number; it is taken to be in h.

MRT measured on "CC(C)(O)c1ccc(NC(=O)c2ccnn(-c3ccccc3OCC(F)(F)F)c2=O)cc1" = 1.91

Given item "CC(C)(O)c1ccc(N2Cc3c(ccnc3-c3ccc(F)cc3OCC(F)(F)F)C2=O)cc1" , the value recorded as its MRT is 7.14

* * *

test: Intrinsic clearance in human liver microsomes at 1 uM in presence of NADPH generating system assessed per mg protein by LC-MS/MS analysis; format: ADME, Microsome; settings: read-out: CLH
ASSAY_ENDPOINT: microsomal CLint at 1 µM (µL/min/mg)
Answer format: numeric, µL/min/mg implied, no suffix.

Notebook: "CC(C)(O)c1ccc(NC(=O)c2ccnn(-c3ccccc3OCC(F)(F)F)c2=O)cc1" , microsomal CLint at 1 µM read as 32

* * *

biological target: Lysosomal acid glucosylceramidase (Homo sapiens, UniProt P04062); test: Inhibition of human recombinant GCase using 4-methylumbelliferyl beta-D-glucopyranoside as substrate incubated for 20 mins by fluorescence-based analysis
Sequence (P04062 whole entry): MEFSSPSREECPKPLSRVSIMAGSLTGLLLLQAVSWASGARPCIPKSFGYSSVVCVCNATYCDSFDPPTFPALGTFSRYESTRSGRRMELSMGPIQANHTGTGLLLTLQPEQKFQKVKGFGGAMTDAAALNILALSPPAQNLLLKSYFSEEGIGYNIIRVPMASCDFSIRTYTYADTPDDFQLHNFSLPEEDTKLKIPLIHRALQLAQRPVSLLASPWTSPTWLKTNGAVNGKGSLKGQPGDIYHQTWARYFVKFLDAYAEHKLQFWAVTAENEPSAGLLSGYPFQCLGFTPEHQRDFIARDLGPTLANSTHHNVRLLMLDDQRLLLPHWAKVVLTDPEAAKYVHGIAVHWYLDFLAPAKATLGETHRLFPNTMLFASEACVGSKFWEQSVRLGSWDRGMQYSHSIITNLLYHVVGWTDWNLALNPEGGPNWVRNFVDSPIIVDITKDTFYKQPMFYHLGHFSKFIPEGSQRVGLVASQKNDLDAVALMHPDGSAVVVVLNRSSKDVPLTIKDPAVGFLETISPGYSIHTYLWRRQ
pEC50: −log10 of the molar value.
ASSAY_ENDPOINT: pEC50

pEC50 recorded for this molecule, "CC(C)(O)c1ccc(NC(=O)c2ccnn(-c3ccccc3OCC(F)(F)F)c2=O)cc1" , is < 3.52

* * *

molecular target: hERG (Homo sapiens); assay: Inhibition of hERG expressed in CHO-K1 cells at 10 uM incubated for 5 mins by whole cell-automated voltage clamp analysis; type: toxicity, cell-based; settings: CHO-K1 cells expressing hERG
Quick list: inhibition at 5 min, 10 µM per entry.
Give the value, in units of %, as a plain number.

Here is how some compounds turned out for inhibition at 5 min, 10 µM.
INSERT INTO measurements (cpd_smiles, recorded_result) VALUES
  ('O=C1c2ccnc(-c3ccc(F)cc3OC(F)(F)F)c2CN1c1ccc(F)cc1', 51.4),
  ('CC(C)(O)c1ccc(N2Cc3c(ccnc3-c3ccc(F)cc3OCC(F)(F)F)C2=O)cc1', 13.8),
  ('CC(C)(O)COc1ccc(N2Cc3c(ccnc3-c3ccc(F)cc3OCC(F)(F)F)C2=O)cc1', 17.6),
  ('CN(C)C(=O)c1ccc(N2Cc3c(ccnc3-c3ccc(F)cc3OCC(F)(F)F)C2=O)cc1', 41.8),
  ('CS(=O)(=O)c1ccc(N2Cc3c(ccnc3-c3ccc(F)cc3OCC(F)(F)F)C2=O)cc1', 23.7);

# input for lookup
// sample "CC(C)(C#N)c1ccc(N2Cc3c(ccnc3-c3ccc(F)cc3OCC(F)(F)F)C2=O)cc1" , its inhibition at 5 min, 10 µM was 39.4
